Literature survey of IC50 (system: cGMP-specific 3',5'-cyclic phosphodiesterase (Canis lupus familiaris)).

{"COMPOUND": "COc1ccc(CNc2nc(N3CCC[C@H]3CO)ncc2C(=O)NCC2CN(C)CCO2)cc1Cl (stereo partly specified)", "COMPARISON_OPERATOR": "=", "IC50, nM": 6.1}
{"COMPOUND": "COc1cc(F)cc2c1nnc1c(C)nc(-c3cccc(F)c3C)n12", "COMPARISON_OPERATOR": ">", "IC50, nM": 1000}
{"COMPOUND": "COc1cc(OC)c2nnc3c(C)nc(-c4cnccc4C)n3c2c1", "COMPARISON_OPERATOR": "=", "IC50, nM": 5070}
{"COMPOUND": "COc1ccc(COc2nc(OCc3ccccn3)ncc2C(=O)c2cc(OC)c(OC)c(OC)c2)cc1Cl", "COMPARISON_OPERATOR": "=", "IC50, nM": 1.5}
{"COMPOUND": "COc1cc(F)cc2c1nnc1c(C)nc(-c3sccc3C)n12", "COMPARISON_OPERATOR": "=", "IC50, nM": 3600}
{"COMPOUND": "COc1ccc(CNc2nc(N3CCC(CO)C3)ncc2C(=O)NCc2ncccn2)cc1Cl (stereo unspecified)", "COMPARISON_OPERATOR": "=", "IC50, nM": 25}
{"COMPOUND": "COc1cc(F)c2nnc3c(C)nc(-c4sccc4C)n3c2c1", "COMPARISON_OPERATOR": "=", "IC50, nM": 2780}
{"COMPOUND": "COc1ccc(CNc2nc(N3CCC[C@H]3CO)ncc2C=O)cc1Cl", "COMPARISON_OPERATOR": "=", "IC50, nM": 33}
{"COMPOUND": "COc1ccc(CNc2nc(OCc3ccccn3)ncc2C(=O)NCc2ncccn2)cc1Cl", "COMPARISON_OPERATOR": "=", "IC50, nM": 12}
{"COMPOUND": "COC(=O)c1c(-c2cc(OC)c(OC)c(OC)c2)c2ccc(OCc3ccccn3)cc2c(=O)n1-c1ccc(N)cc1.Cl.Cl", "COMPARISON_OPERATOR": "=", "IC50, nM": 1}
{"COMPOUND": "COc1ccc(F)c(-c2nc(C)c3nnc4ccc(OC)nc4n23)c1", "COMPARISON_OPERATOR": "=", "IC50, nM": 702}
{"COMPOUND": "COc1ccc(CNc2nc(OCc3ccccn3)ncc2C(=O)OCc2ncccn2)cc1Cl", "COMPARISON_OPERATOR": "=", "IC50, nM": 4.2}
{"COMPOUND": "COC(=O)c1c(-c2cc(OC)c(OC)c(OC)c2)c2cc(OC)c(OC)cc2c(=O)n1-c1ccc(O)cc1", "COMPARISON_OPERATOR": "=", "IC50, nM": 110}
{"COMPOUND": "COc1cc(F)cc2c1nnc1c(C)nc(-c3cnccc3C)n12", "COMPARISON_OPERATOR": ">", "IC50, nM": 10000}
{"COMPOUND": "COc1cc(C(F)(F)F)cc2c1nnc1c(C)nc(-c3cnccc3C)n12", "COMPARISON_OPERATOR": ">", "IC50, nM": 10000}
{"COMPOUND": "COc1cc(F)cc2c1nnc1c(C)nc(-c3ccncc3C)n12", "COMPARISON_OPERATOR": ">", "IC50, nM": 10000}
{"COMPOUND": "COc1ccc(CNc2nc(N(C)CCO)ncc2C(=O)c2cc(OC)c(OC)c(OC)c2)cc1Cl", "COMPARISON_OPERATOR": "=", "IC50, nM": 2.7}
{"COMPOUND": "COc1ccc(CNc2nc(N3CCC(O)CC3)ncc2C(=O)NCc2ccccn2)cc1Cl", "COMPARISON_OPERATOR": "=", "IC50, nM": 59}
{"COMPOUND": "CNc1ccc(-n2c(C(=O)OC)c(-c3cc(OC)c(OC)c(OC)c3)c3cc(OC)c(OC)cc3c2=O)cc1", "COMPARISON_OPERATOR": ">", "IC50, nM": 10000}
{"COMPOUND": "CNC(=O)c1c(-c2cc(OC)c(OC)c(OC)c2)c2ccc(OCc3ccccn3)cc2c(=O)n1-c1ccc(N)cc1.Cl.Cl", "COMPARISON_OPERATOR": "=", "IC50, nM": 220}
{"COMPOUND": "COc1ccc(CNc2nc(OCc3ccccn3)ncc2C(=O)NCCCCO)cc1Cl", "COMPARISON_OPERATOR": "=", "IC50, nM": 12}

---

System: cGMP-specific 3',5'-cyclic phosphodiesterase (Canis lupus familiaris, UniProt O77746) | Read-out: log10(IC50) | Origin: multiple publications
READOUT_NAME: log10(IC50) (log10 of the value in µM)

{"COMPOUND": "COC(=O)c1c(-c2cc(OC)c(OC)c(OC)c2)c2cc(OC)c(OC)cc2c(=O)n1-c1ccc(N)cc1.Cl", "SYSTEM_TESTED": "cGMP-specific 3',5'-cyclic phosphodiesterase (Canis lupus familiaris, UniProt O77746)", "log10(IC50)": -1.68}
{"COMPOUND": "COc1ccc(Cn2c(=O)cc(C)c3cnc(N4CCC[C@H]4CO)nc32)cc1Cl", "SYSTEM_TESTED": "cGMP-specific 3',5'-cyclic phosphodiesterase (Canis lupus familiaris, UniProt O77746)", "log10(IC50)": -3.07}
{"COMPOUND": "COC(=O)c1c(-c2cc(OC)c(OC)c(OC)c2)c2ccc(OCCc3ccccn3)cc2c(=O)n1-c1ccc(N)cc1", "SYSTEM_TESTED": "cGMP-specific 3',5'-cyclic phosphodiesterase (Canis lupus familiaris, UniProt O77746)", "log10(IC50)": -2.30}
{"COMPOUND": "COC(=O)c1c(-c2cc(OC)c(OC)c(OC)c2)c2cc(OC)c(OC)cc2c(=O)n1-c1ccc(Cl)cc1", "SYSTEM_TESTED": "cGMP-specific 3',5'-cyclic phosphodiesterase (Canis lupus familiaris, UniProt O77746)", "log10(IC50)": -0.77}
{"COMPOUND": "COc1ccc(CNc2nc(N3CCC[C@H]3CO)ncc2C(=O)NCCCO)cc1Cl", "SYSTEM_TESTED": "cGMP-specific 3',5'-cyclic phosphodiesterase (Canis lupus familiaris, UniProt O77746)", "log10(IC50)": -2.18}
{"COMPOUND": "COc1ccc(CNc2nc(OCc3ccccn3)ncc2C(=O)NCCN2CCOCC2)cc1Cl", "SYSTEM_TESTED": "cGMP-specific 3',5'-cyclic phosphodiesterase (Canis lupus familiaris, UniProt O77746)", "log10(IC50)": -2.25}
{"COMPOUND": "COC(=O)c1c(-c2cc(OC)c(OC)c(OC)c2)c2ccc(OCc3cccnc3)cc2c(=O)n1-c1ccc(N)cc1.Cl.Cl", "SYSTEM_TESTED": "cGMP-specific 3',5'-cyclic phosphodiesterase (Canis lupus familiaris, UniProt O77746)", "log10(IC50)": -2.96}
{"COMPOUND": "COC(=O)c1c(-c2cc(OC)c(OC)c(OC)c2)c2cc(OC)c(OC)cc2c(=O)n1C", "SYSTEM_TESTED": "cGMP-specific 3',5'-cyclic phosphodiesterase (Canis lupus familiaris, UniProt O77746)", "log10(IC50)": -0.64}
{"COMPOUND": "COc1ccc(CNc2nc(N3CCOCC3)ncc2C(=O)c2cc(OC)c(OC)c(OC)c2)cc1Cl", "SYSTEM_TESTED": "cGMP-specific 3',5'-cyclic phosphodiesterase (Canis lupus familiaris, UniProt O77746)", "log10(IC50)": -2.82}
{"COMPOUND": "COc1ccc(CNc2nc(N3CCOC(CO)C3)ncc2C(=O)c2cc(OC)c(OC)c(OC)c2)cc1Cl (stereo unspecified)", "SYSTEM_TESTED": "cGMP-specific 3',5'-cyclic phosphodiesterase (Canis lupus familiaris, UniProt O77746)", "log10(IC50)": -2.74}
{"COMPOUND": "COC(=O)c1nc(N2CCC(O)CC2)c2cc(OCc3ccccc3)ccc2c1-c1cc(OC)c(OC)c(OC)c1", "SYSTEM_TESTED": "cGMP-specific 3',5'-cyclic phosphodiesterase (Canis lupus familiaris, UniProt O77746)", "log10(IC50)": -2.70}
{"COMPOUND": "CCOc1cc2c(-c3cc(OC)c(OC)c(OC)c3)c(C(=O)OC)n(-c3ccc(N)cc3)c(=O)c2cc1OCC.Cl", "SYSTEM_TESTED": "cGMP-specific 3',5'-cyclic phosphodiesterase (Canis lupus familiaris, UniProt O77746)", "log10(IC50)": -1.57}
{"COMPOUND": "COC(=O)c1c(-c2cc(OC)c(OC)c(OC)c2)c2cc(OC)c(OC)cc2c(=O)n1N1CCCCC1", "SYSTEM_TESTED": "cGMP-specific 3',5'-cyclic phosphodiesterase (Canis lupus familiaris, UniProt O77746)", "log10(IC50)": -1.27}
{"COMPOUND": "COc1ccc2nnc3c(C)nc(-c4cc(Cl)ccc4Cl)n3c2n1", "SYSTEM_TESTED": "cGMP-specific 3',5'-cyclic phosphodiesterase (Canis lupus familiaris, UniProt O77746)", "log10(IC50)": 0.06}
{"COMPOUND": "COc1ccc(Cn2c(=O)cc(CCN3CCOCC3)c3cnc(N4CCC[C@H]4CO)nc32)cc1Cl", "SYSTEM_TESTED": "cGMP-specific 3',5'-cyclic phosphodiesterase (Canis lupus familiaris, UniProt O77746)", "log10(IC50)": -3.01}
{"COMPOUND": "COc1cc(-c2c(C(=O)O)n(-c3ccc(N)cc3)c(=O)c3cc(OCc4ccccn4)ccc23)cc(OC)c1OC.Cl.Cl", "SYSTEM_TESTED": "cGMP-specific 3',5'-cyclic phosphodiesterase (Canis lupus familiaris, UniProt O77746)", "log10(IC50)": 0.28}
{"COMPOUND": "COC(=O)c1c(-c2cc(OC)c(OC)c(OC)c2)c2ccc(OCc3ccncc3)cc2c(=O)n1-c1ccc(N)cc1.Cl.Cl", "SYSTEM_TESTED": "cGMP-specific 3',5'-cyclic phosphodiesterase (Canis lupus familiaris, UniProt O77746)", "log10(IC50)": -2.51}
{"COMPOUND": "COc1ccc(CNc2nc(OCc3ccccn3)ncc2C(=O)N(C)Cc2ccccn2)cc1Cl", "SYSTEM_TESTED": "cGMP-specific 3',5'-cyclic phosphodiesterase (Canis lupus familiaris, UniProt O77746)", "log10(IC50)": -1.07}
{"COMPOUND": "COC(=O)c1c(-c2cc(OC)c(OC)c(OC)c2)c2cc(OC)ccc2c(=O)n1-c1ccc(N)cc1.Cl", "SYSTEM_TESTED": "cGMP-specific 3',5'-cyclic phosphodiesterase (Canis lupus familiaris, UniProt O77746)", "log10(IC50)": -1.01}
{"COMPOUND": "COc1cc(OC)c2nnc3c(C)nc(-c4ccccc4C)n3c2c1", "SYSTEM_TESTED": "cGMP-specific 3',5'-cyclic phosphodiesterase (Canis lupus familiaris, UniProt O77746)", "log10(IC50)": 0.05}
{"COMPOUND": "CCOC(=O)c1c(-c2cc(OC)c(OC)c(OC)c2)c2ccc(OCc3ccccn3)cc2c(=O)n1-c1ccc(N)cc1.Cl.Cl", "SYSTEM_TESTED": "cGMP-specific 3',5'-cyclic phosphodiesterase (Canis lupus familiaris, UniProt O77746)", "log10(IC50)": -1.74}
{"COMPOUND": "COc1cccc2c1nnc1c(C)nc(-c3ccccc3Cl)n12", "SYSTEM_TESTED": "cGMP-specific 3',5'-cyclic phosphodiesterase (Canis lupus familiaris, UniProt O77746)", "log10(IC50)": 0.49}
{"COMPOUND": "COc1ccc(CNc2nc(OCc3ccccn3)ncc2C(=O)N[C@H]2CC[C@H](O)CC2)cc1Cl", "SYSTEM_TESTED": "cGMP-specific 3',5'-cyclic phosphodiesterase (Canis lupus familiaris, UniProt O77746)", "log10(IC50)": -2.46}
{"COMPOUND": "COCCOc1ncc(C(=O)c2cc(OC)c(OC)c(OC)c2)c(NCc2ccc(OC)c(Cl)c2)n1", "SYSTEM_TESTED": "cGMP-specific 3',5'-cyclic phosphodiesterase (Canis lupus familiaris, UniProt O77746)", "log10(IC50)": -2.77}
{"COMPOUND": "COc1ccc(CNc2nc(N3CCC[C@@H]3CO)ncc2C(=O)NCc2ncccn2)cc1Cl", "SYSTEM_TESTED": "cGMP-specific 3',5'-cyclic phosphodiesterase (Canis lupus familiaris, UniProt O77746)", "log10(IC50)": -1.44}
{"COMPOUND": "COc1ccc(CNc2nc(N(C)CCO)ncc2C(=O)NCc2ccccn2)cc1Cl", "SYSTEM_TESTED": "cGMP-specific 3',5'-cyclic phosphodiesterase (Canis lupus familiaris, UniProt O77746)", "log10(IC50)": -1.49}
{"COMPOUND": "COc1ccc(CN(C)c2nc(OCc3ccccn3)ncc2C(=O)c2cc(OC)c(OC)c(OC)c2)cc1Cl", "SYSTEM_TESTED": "cGMP-specific 3',5'-cyclic phosphodiesterase (Canis lupus familiaris, UniProt O77746)", "log10(IC50)": -2.30}
{"COMPOUND": "COc1ccc(CNc2nc(OCc3ccccn3)ncc2C(=O)NCc2ccccn2)cc1Cl", "SYSTEM_TESTED": "cGMP-specific 3',5'-cyclic phosphodiesterase (Canis lupus familiaris, UniProt O77746)", "log10(IC50)": -2.57}
{"COMPOUND": "COc1cc(F)cc2c1nnc1c(C)nc(-c3sc(C)nc3C)n12", "SYSTEM_TESTED": "cGMP-specific 3',5'-cyclic phosphodiesterase (Canis lupus familiaris, UniProt O77746)", "log10(IC50)": 0.68}
{"COMPOUND": "COc1cc(C(F)(F)F)cc2c1nnc1c(C)nc(-c3ccncc3C)n12", "SYSTEM_TESTED": "cGMP-specific 3',5'-cyclic phosphodiesterase (Canis lupus familiaris, UniProt O77746)", "log10(IC50)": 0.36}
{"COMPOUND": "COc1cc(-c2c(C(=O)N(C)C)n(-c3ccc(N)cc3)c(=O)c3cc(OCc4ccccn4)ccc23)cc(OC)c1OC.Cl.Cl", "SYSTEM_TESTED": "cGMP-specific 3',5'-cyclic phosphodiesterase (Canis lupus familiaris, UniProt O77746)", "log10(IC50)": 0.32}
{"COMPOUND": "COC(=O)c1c(-c2cc(OC)c(C)c(OC)c2)c2ccc(OCc3ccccn3)cc2c(=O)n1-c1ccc(N)cc1.Cl.Cl", "SYSTEM_TESTED": "cGMP-specific 3',5'-cyclic phosphodiesterase (Canis lupus familiaris, UniProt O77746)", "log10(IC50)": -3.41}
{"COMPOUND": "COc1ccc(Cn2c(=O)cc(-c3ccccn3)c3cnc(N4CCC[C@H]4CO)nc32)cc1Cl", "SYSTEM_TESTED": "cGMP-specific 3',5'-cyclic phosphodiesterase (Canis lupus familiaris, UniProt O77746)", "log10(IC50)": -2.77}
